Where do the numbers come from? From patent US9068970B2.

- System: recombinant IgG producing Chinese Hamster Ovary cell line (CHO cell line #1)
- test_name: JMP7 statistical identification of high performance media supplementation from a 15-supplement screening experiment
- Assay type: cell-based
- condition_parameters: predicted amount for addition into the unsupplemented control media
- Protocol: Standard Analysis of Variance (ANOVA) was used to measure the significance of individual supplements and their respective interactions towards the resulting cell culture technique performance. Individual analyses were conducted on both peak viable cell density and harvest titer for each of the respective screening experiments. Three different levels of each media supplement were used in these experiments: unsupplemented (Level 1), lightly supplemented (Level 2), and heavily supplemented (Level 3). […]
quantity_name: Concentration Target (Range) for Increase of Harvest Titer (g/L)
Answer format: numeric, g/L implied, no suffix.

smiles_str	value_units	number
OC[C@H]1O[C@@H]2O[C@H]3[C@H](O)[C@@H](O)[C@@H](O[C@H]4[C@H](O)[C@@H](O)[C@@H](O[C@H]5[C@H](O)[C@@H](O)[C@@H](O[C@H]6[C@H](O)[C@@H](O)[C@@H](O[C@H]7[C@H](O)[C@@H](O)[C@@H](O[C@H]8[C@H](O)[C@@H](O)[C@@H](O[C@H]1[C@H](O)[C@H]2O)O[C@@H]8CO)O[C@@H]7CO)O[C@@H]6CO)O[C@@H]5CO)O[C@@H]4CO)O[C@@H]3CO	g/L	0

Now consider the entry below.
Summary for this molecule, OC[C@H]1O[C@@H]2O[C@H]3[C@H](O)[C@@H](O)[C@@H](O[C@H]4[C@H](O)[C@@H](O)[C@@H](O[C@H]5[C@H](O)[C@@H](O)[C@@H](O[C@H]6[C@H](O)[C@@H](O)[C@@H](O[C@H]7[C@H](O)[C@@H](O)[C@@H](O[C@H]1[C@H](O)[C@H]2O)O[C@@H]7CO)O[C@@H]6CO)O[C@@H]5CO)O[C@@H]4CO)O[C@@H]3CO : Concentration Target (Range) for Increase of Harvest Titer is 0

----------
- System: recombinant IgG producing Chinese Hamster Ovary cell line (CHO cell line #1)
- test_name: JMP7 statistical identification of high performance media supplementation from a 15-supplement screening experiment
- Type: cell-based
- condition_parameters: predicted amount for addition into the unsupplemented control media
quantity_name: Concentration Target (Range) for Increase of Peak VCD

Some solved cases for reference:
compound	result
OC1C(O)C(O)C(O)C(O)C1O (stereo not drawn)	+0.11 (0.09-0.12) g/L
Cl.N[C@@H](Cc1cnc[nH]1)C(=O)O.O [L-histidine*HCl*H2O]	+0.21 (0.18-0.23) g/L

Switching to the query record.
Lab note: compound OC[C@H]1O[C@@H]2O[C@H]3[C@H](O)[C@@H](O)[C@@H](O[C@H]4[C@H](O)[C@@H](O)[C@@H](O[C@H]5[C@H](O)[C@@H](O)[C@@H](O[C@H]6[C@H](O)[C@@H](O)[C@@H](O[C@H]7[C@H](O)[C@@H](O)[C@@H](O[C@H]1[C@H](O)[C@H]2O)O[C@@H]7CO)O[C@@H]6CO)O[C@@H]5CO)O[C@@H]4CO)O[C@@H]3CO tested on recombinant IgG producing Chinese Hamster Ovary cell line (CHO cell line #1); recorded Concentration Target (Range) for Increase of Peak VCD was +0.16 (0.14-0.18) g/L

----------
- Tested on: recombinant IgG producing Chinese Hamster Ovary cell line (CHO cell line #1)
- test_name: Supplement screening: process performance (peak VCD and/or harvest titer) by inspectional/statistical analysis
- Assay type: cell-based
- condition_parameters: univariate analysis of varying supplement concentrations
quantity_name: Process Performance Pattern

For orientation, consider the following solved cases.
molecule	result
OC1C(O)C(O)C(O)C(O)C1O (centres unmarked) [i-inositol]	Wide dispersal
OC[C@H]1O[C@@H]2O[C@H]3[C@H](O)[C@@H](O)[C@@H](O[C@H]4[C@H](O)[C@@H](O)[C@@H](O[C@H]5[C@H](O)[C@@H](O)[C@@H](O[C@H]6[C@H](O)[C@@H](O)[C@@H](O[C@H]7[C@H](O)[C@@H](O)[C@@H](O[C@H]8[C@H](O)[C@@H](O)[C@@H](O[C@H]1[C@H](O)[C@H]2O)O[C@@H]8CO)O[C@@H]7CO)O[C@@H]6CO)O[C@@H]5CO)O[C@@H]4CO)O[C@@H]3CO [β-cyclodextrin]	Wide dispersal
O=C[C@H](O)[C@@H](O)[C@H](O)CO [Xylose]	Wide dispersal
OC[C@H]1O[C@H](O[C@H]2[C@H](O)[C@@H](O)C(O)O[C@@H]2CO)[C@H](O)[C@@H](O)[C@@H]1O (mixture of isomers) [Maltose]	Wide dispersal
Nc1nc(=O)c2nc(CNc3ccc(C(=O)N[C@@H](CCC(=O)O)C(=O)O)cc3)cnc2[nH]1 [Folate]	Wide dispersal
OC[C@H]1O[C@@H]2O[C@H]3[C@H](O)[C@@H](O)[C@@H](O[C@H]4[C@H](O)[C@@H](O)[C@@H](O[C@H]5[C@H](O)[C@@H](O)[C@@H](O[C@H]6[C@H](O)[C@@H](O)[C@@H](O[C@H]7[C@H](O)[C@@H](O)[C@@H](O[C@H]1[C@H](O)[C@H]2O)O[C@@H]7CO)O[C@@H]6CO)O[C@@H]5CO)O[C@@H]4CO)O[C@@H]3CO [α-cyclodextrin]	Wide dispersal

# input for lookup
Form: item Cc1cn([C@H]2C[C@H](O)[C@@H](CO)O2)c(=O)[nH]c1=O [Thymidine] ; test system recombinant IgG producing Chinese Hamster Ovary cell line (CHO cell line #1); Process Performance Pattern: Wide dispersal

----------
- Tested on: recombinant IgG producing Chinese Hamster Ovary cell line (CHO cell line #1)
- test_name: 24-well plate media supplement screening: peak viable cell density (CellTiter 96 AQueous)
- Type: cell-based
- condition_parameters: HTS experiments; CDM #1, relative to unsupplemented control
quantity_name: Effect on Peak VCD

compound	test_system	result
OC[C@H]1O[C@H](O[C@H]2[C@H](O)[C@@H](O)C(O)O[C@@H]2CO)[C@H](O)[C@@H](O)[C@@H]1O (mixture of isomers)	recombinant IgG producing Chinese Hamster Ovary cell line (CHO cell line #1)	No change
CCCCC/C=C\C/C=C\CCCCCCCC(=O)O	recombinant IgG producing Chinese Hamster Ovary cell line (CHO cell line #1)	No change

----------
- Tested on: recombinant IgG producing Chinese Hamster Ovary cell line (CHO cell line #1)
- test_name: 24-well plate media supplement screening: peak viable cell density (CellTiter 96 AQueous)
- Format: cell-based
- condition_parameters: HTS experiments; CDM #1, relative to unsupplemented control
- Protocol: 24-well plates were utilized at a working volume of 1.5 mL per well to serve as the platform for media supplement screening. An in-house, base chemically defined media (CDM #1) was used as the basal media for the purposes of the experiments. […] Two cell culture performance indicators were measured in the high-throughput screening experiments: peak viable cell density and harvest titer. […]
quantity_name: Effect on Peak VCD

compound	test_system	Effect on Peak VCD
OC1C(O)C(O)C(O)C(O)C1O (stereo not drawn)	recombinant IgG producing Chinese Hamster Ovary cell line (CHO cell line #1)	No change
C[C@]12CCC(=O)C=C1CC[C@@H]1[C@@H]2[C@@H](O)C[C@@]2(C)[C@H]1CC[C@]2(O)C(=O)CO [Hydrocortisone, reference compound]	recombinant IgG producing Chinese Hamster Ovary cell line (CHO cell line #1)	No change
OC[C@H]1O[C@@H]2O[C@H]3[C@H](O)[C@@H](O)[C@@H](O[C@H]4[C@H](O)[C@@H](O)[C@@H](O[C@H]5[C@H](O)[C@@H](O)[C@@H](O[C@H]6[C@H](O)[C@@H](O)[C@@H](O[C@H]7[C@H](O)[C@@H](O)[C@@H](O[C@H]8[C@H](O)[C@@H](O)[C@@H](O[C@H]1[C@H](O)[C@H]2O)O[C@@H]8CO)O[C@@H]7CO)O[C@@H]6CO)O[C@@H]5CO)O[C@@H]4CO)O[C@@H]3CO	recombinant IgG producing Chinese Hamster Ovary cell line (CHO cell line #1)	Increase
[Cl-].[Cl-].[Zn+2] [Zinc chloride]	recombinant IgG producing Chinese Hamster Ovary cell line (CHO cell line #1)	No change
Cc1cn([C@H]2C[C@H](O)[C@@H](CO)O2)c(=O)[nH]c1=O	recombinant IgG producing Chinese Hamster Ovary cell line (CHO cell line #1)	No change

Noted for NCCO : its Effect on Peak VCD reads Increase

----------
# key: entry, value: Concentration Target (Range) for Increase of Harvest Titer
- Test system: recombinant IgG producing Chinese Hamster Ovary cell line (CHO cell line #1)
- test_name: JMP7 statistical identification of high performance media supplementation from a 15-supplement screening experiment
- Type: cell-based
- condition_parameters: predicted amount for addition into the unsupplemented control media

# annotated cases, reported Concentration Target (Range) for Increase of Harvest Titer shown
compound	test_system	result
Cl.N[C@@H](Cc1cnc[nH]1)C(=O)O.O [L-histidine*HCl*H2O]	recombinant IgG producing Chinese Hamster Ovary cell line (CHO cell line #1)	+0.25 (0.22-0.28) g/L
[Cl-].[Cl-].[Zn+2] [Zinc chloride]	recombinant IgG producing Chinese Hamster Ovary cell line (CHO cell line #1)	+5.46 × 10^−3 g/L

Input OC1C(O)C(O)C(O)C(O)C1O (stereo not drawn) . Output Concentration Target (Range) for Increase of Harvest Titer: +0.05 (0.05-0.06) g/L
